Below, each of the sequences is paired with its reported apparent KD of MS2 coat protein value.
# Test system: MS2 coat protein
# experiment_notes: apparent KD of MS2 coat protein; designed switch direction (-1 OFF switch, 1 ON switch): 1; higher = weaker reporter binding
# run_parameters: input ligand: microRNA oligo, concentration not stated

# item_sequence, apparent KD of MS2 coat protein
measured = [
    ("GAGAGACGAUUAGGAUAUCCGGUGAUAAUGAUAGGAGAAGGAAUUGACAUGAGGAUCACCCAUGUAGGAAUAAUCCAGAGAGAG [Parity 25 - Jieux - Same State NG 1] (Eterna round: R96, puzzle: Same State NG 1)", "28.5 nM"),
    ("CCGUUCAAUAAACAUGAGGAUCACCCAUGUAAUAAUAAGGGUGAGGAUAUGCAUCUGAAACAGGUGCAGAAGGCAUAAGAGCGG [JL SSNG3 3.90] (Eterna round: R96, puzzle: Same State NG 3)", "289 nM"),
    ("CCCUUCGGCACAUGAGGAUCACCCAUGUUUUAGUUGAAGAGGUAGGAUAUGGCUGGGAGCGGAAGCCAGAAGGACCAAGUGAGU [Lareonge] (Eterna round: R96, puzzle: Same State NG 3)", "8.41 nM"),
]

(Q) Entry CUGAGCGAUUAAGGAUAUCACGUCGAAUAGACGUGAGAAGGUGAUCAUAACAUGAGGAUCACCCAUGUAUUACAUGAAGCUCAG [SSNG1/3-A1] (Eterna round: R96, puzzle: Same State NG 1) has what apparent KD of MS2 coat protein?
(A) 100 nM

(Q) Entry GCUCGCACGAUGACCCACAUGAGGAUCACCCAUGUGCUUGGGCAGGAUAUCUAGAUUAAGGAUGUAGAGAAGGGUUGAGCGAGC [SameState NG3 #27] (Eterna round: R96, puzzle: Same State NG 3) has what apparent KD of MS2 coat protein?
(A) 113 nM

###

# System: MS2 coat protein
# experiment_notes: apparent KD of MS2 coat protein; designed switch direction (-1 OFF switch, 1 ON switch): -1; higher = weaker reporter binding
# run_parameters: input ligand: microRNA oligo, concentration not stated
Below, each of the sequences is paired with its reported apparent KD of MS2 coat protein value.
The reply should contain only the number, in nM.

# item_sequence, assayed_system, units_label, reported
rows = [
    ("UAUAUAUAGUAAGGAUAUGUAUAUAGUUUAUAAACAGAAGGUACUGACAUGAGGAUCACCCAUGUUUUAGUGUGGGCAUGUAGA [JMF's solution 56] (Eterna round: R96, puzzle: Exclusion NG 1)", "MS2 coat protein", "nM", 61.3),
    ("GCACGGAGUGUAGGAUAUCUGUGCGAUUAGCUCAGAGAAGGACACAUGAGGAUCACCCAUGUGUAACUCAAUACUCAUCCGUGC [Eli exng1 - 070] (Eterna round: R96, puzzle: Exclusion NG 1)", "MS2 coat protein", "nM", 9.18),
    ("AGUAGUUGUUUCCGUUCUUACAUGAGGAUCACCCAUGUUUCUUGUCGUGCUCGCGAUGCUCGUCAGACUACCAGAUG [salish99_TOv1_r3_059] (Eterna round: R96, puzzle: Sensor v3, turn-off variant 1)", "MS2 coat protein", "nM", 40.6),
    ("GCACGGAGUGUAGGAUAUCUGUGCGAUUAGCUCAGAGAAGGACACAUGAGGAUCACCCAUGUGUAUCAACACAAUAAUCCGUGC [Eli exng1 - 071] (Eterna round: R96, puzzle: Exclusion NG 1)", "MS2 coat protein", "nM", 13.1),
]

(Q) Entry ACAUGUCAUUGAGGAUAUUGCAAACAUGAGGAUCACCCAUGUAUACGGAUGCUCUUACGUGAGUUCGAGAAGGCGAUGUACAUU [Ex NG2 #91] (Eterna round: R96, puzzle: Exclusion NG 2) has what apparent KD of MS2 coat protein?
(A) 39.7

###

# Tested on: MS2 coat protein
# experiment_notes: apparent KD of MS2 coat protein; designed switch direction (-1 OFF switch, 1 ON switch): -1; higher = weaker reporter binding
# run_parameters: Eterna round: R95; input ligand: microRNA oligo, concentration not stated
Below, each of the sequences is paired with its reported apparent KD of MS2 coat protein value.
The reply should contain only the number, in nM.

Some sequences with recorded apparent KD of MS2 coat protein:
# item_sequence, assayed_system, units_label, apparent KD of MS2 coat protein
records = [
    ("GAAAAGGUAGGAUAUACGAAAAAAAAGGGUAGAAAAAAAACACAUGAGGAUCACCCAUGUAGAAGGACCGAAAG [salish99_ex2_r3_037] (puzzle: Exclusion 2)", "MS2 coat protein", "nM", 36.8),
    ("AGUGGGCUAGGAUAUCGAUGAACUCACAUGAGGAUCACCCAUGUGUCUUUGGUGGGCGCACGAGAAGGAGUAAGAU [Tiorat] (puzzle: Exclusion 5)", "MS2 coat protein", "nM", 36.5),
    ("CCCUCACAUGAGGAUCACCCAUGUCAGGAUAUCUCACAUCGGCCUUAGGCCAAUGUCAAGAGAAGGGACGUAUC [Usanvequin] (puzzle: Exclusion 1)", "MS2 coat protein", "nM", 21.7),
    ("UCGCUGCGAGGAUAUACAUGAGGAUCACCCAUGUGCGGGUCCGGGUCUUCGUCCAUUGGUAGAAGGCGCAGUGA [JL Laongeedie mod 6] (puzzle: Exclusion 3)", "MS2 coat protein", "nM", 43),
    ("GUGUAGAUAGGAUAUGCUUUGAGCUUAUGAGAGUAUGCUCGACAUGAGGAUCACCCAUGUAGAAGGGUUUACAC [LRO-Excl2-04] (puzzle: Exclusion 2)", "MS2 coat protein", "nM", 68.5),
]

Could you now consider this next sequence?
(Q) Requested read-out apparent KD of MS2 coat protein, target or system MS2 coat protein, entry CGGUGCUGAGGAUAUACAUGAGGAUCACCCAUGUGUUCCAGCUAGGUGACUGGCGGAUGUAGAAGGCGGUACUG [JL-ex3-3.39 Brourd mod] (puzzle: Exclusion 3)
(A) 31.2

###

# Tested on: MS2 coat protein
# experiment_notes: apparent KD of MS2 coat protein; designed switch direction (-1 OFF switch, 1 ON switch): -1; higher = weaker reporter binding
# run_parameters: Eterna round: R95; input ligand: microRNA oligo, concentration not stated
apparent KD of MS2 coat protein vs 20 nM: at or above is YES, below is NO.

Below, 9 sequences whose answers are already recorded.
# item_sequence, assayed_system, group_label
records = [
    ("CCGAAUAUGCAGGAUAUCGUAUCGGAAACGAUACGAGAAGGGUAAACAUGAGGAUCACCCAUGUUCCUUAACGG [Fiskers Ex 6 - 18] (puzzle: Exclusion 6)", "MS2 coat protein", "NO"),
    ("CAGUACUGAGGAUAUACAUGAGGAUCACCCAUGUGUUCCAGCUAGGAAACUAGCAAAAGUAGAAGGCAGUUCUG [salish99_ex3_r3_099x] (puzzle: Exclusion 3)", "MS2 coat protein", "NO"),
    ("CUAGAUCUUCGGAUCUAGUACAUGAGGAUCACCCAUGUGACGAGUAGAUCCUCAAACAAGCUUUUUGCUCGUCUUAU [Sensor v3 - Turn-off variant 1 - 20] (puzzle: Sensor v3, turn-off variant 1)", "MS2 coat protein", "NO"),
    ("AGAAGUAGUAACCGAUCCUACAUGAGGAUCACCCAUGUAGCUAGACGUGCACGCGAGGCUCGUCAGACUACCAGAUG [salish99_TOv1_r3_028] (puzzle: Sensor v3, turn-off variant 1)", "MS2 coat protein", "YES"),
    ("GUGAGCAGACGGAGAUCCAACAUGAGGAUCACCCAUGUCUCAUAAGCUUUUUGCUCAUCUUAUUGUACCUUGGUGCU [Mat - Sensor v3 - turn-off var 1 - JL Mod - D20] (puzzle: Sensor v3, turn-off variant 1)", "MS2 coat protein", "NO"),
    ("UGUGCGUAUGUGAGGAUAUGCUGGUCCUUGGAUCGGCAGAAGGCACAUGAGGAUCACCCAUGUGGUGUCGUUCG [salish99_Bmod_ex4_097] (puzzle: Brourd's mod of Exclusion 4)", "MS2 coat protein", "YES"),
    ("UUCCUACAUGAGGAUCACCCAUGUCAGGAUAUCUCCUCACCGCGAAAAGGCGGUGAAAAGAGAAGGGACAGGAA [Usbian] (puzzle: Exclusion 1)", "MS2 coat protein", "NO"),
    ("AAAUAACAAGCAGGAUCCUACAUGAGGAUCACCCAUGUGCUCGUCUUAUAAAGUACUAUCACGAAAGUGAUAGUACU [Mat - Sensor v3 - turn-off var 1 - Eli Mod - D72] (puzzle: Sensor v3, turn-off variant 1)", "MS2 coat protein", "YES"),
    ("AGGAAGCAAGGAUAUACGAGGAGAAGGUGUCCAUCUAAAGGACAUGAGGAUCACCCAUGUAGAAGGUGCGAGAA [JR_Exclu2_Sub049] (puzzle: Exclusion 2)", "MS2 coat protein", "YES"),
]

Moving on to the next sequence.
(Q) Quick check, apparent KD of MS2 coat protein >= 20 nM? UGGCUACCUUGGUGCUCUACAAGCUUUUUGCUCGUUUUAACAUGAGGAUCACCCAUGUCUAGUGGAUCUGAUCGGGC [JL ViennaUCT Isreen mod 1] (puzzle: Sensor v3, turn-off variant 2)
(A) YES

Taken from the supplement of paper PMC9170038.
